Here the recorded pIC50 is given for each entry.
# measurement_target: catalytic domain of human Bub1 (amino acids 704-1085) (Homo sapiens, UniProt O43683)
# Construct: catalytic domain of human Bub1 (amino acids 704-1085); His6 (N); made in house; host or cells: Hi5 insect cells
# Sequence (O43683 704-1085): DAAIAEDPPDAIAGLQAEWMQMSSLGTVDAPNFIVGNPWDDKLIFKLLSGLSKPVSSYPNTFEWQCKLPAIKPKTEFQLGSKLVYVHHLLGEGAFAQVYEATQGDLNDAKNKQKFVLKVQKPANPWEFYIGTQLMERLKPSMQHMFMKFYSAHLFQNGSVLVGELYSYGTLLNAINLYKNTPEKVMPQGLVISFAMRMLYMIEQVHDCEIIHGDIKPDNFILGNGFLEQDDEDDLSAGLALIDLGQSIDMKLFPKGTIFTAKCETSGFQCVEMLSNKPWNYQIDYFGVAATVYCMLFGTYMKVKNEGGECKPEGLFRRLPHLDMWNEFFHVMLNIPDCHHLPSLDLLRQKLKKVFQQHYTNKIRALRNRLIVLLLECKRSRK
# method_summary: Bub1 kinase assay (TR-FRET)
# Format: biochemical
# condition_context: TR-FRET; ATP 10 μM, peptide substrate 1 μM; 60 min at 22° C.; average or median if tested more than once; read-out: Inhibition of Bub1 kinase IC50
# Procedure: […] In a typical assay 11 different concentrations of each compound (0.1 nM, 0.33 nM, 1.1 nM, 3.8 nM, 13 nM, 44 nM, 0.15 μM, 0.51 μM, 1.7 μM, 5.9 μM and 20 μM) were tested in duplicate within the same microtiter plate. […] Subsequently, the amount of product was evaluated by measurement of the resonance energy transfer from the Eu-chelate-antibody complex recognizing the Phosphoserine residue to the streptavidin-XL665 bound to the biotin moiety of the peptide. […]
A value of pIC50 is the negative decimal logarithm of a concentration given in moles per litre.

Answered cases to consult:
structure_string | measurement_target | test_value
Cc1nccc(-c2[nH]c3c(c2Nc2ccccc2)C(=O)CN(S(C)(=O)=O)C3)n1 | catalytic domain of human Bub1 (amino acids 704-1085) (Homo sapiens, UniProt O43683) | 7.62
CC(=O)Nc1cc(-c2[nH]c3c(c2Nc2ccccc2)C(=O)CN(S(=O)(=O)C2CCOCC2)C3)ccn1 | catalytic domain of human Bub1 (amino acids 704-1085) (Homo sapiens, UniProt O43683) | 8.22
CC(=O)Nc1cc(-c2[nH]c3c(c2Nc2ccccc2)C(=O)CN(C(=O)c2cscn2)C3)ccn1 | catalytic domain of human Bub1 (amino acids 704-1085) (Homo sapiens, UniProt O43683) | 7.34
COc1cc(C(=O)Nc2cc(-c3[nH]c4c(c3Nc3ccccc3)C(=O)CN(C(=O)N3CCCC3)C4)ccn2)ccc1F | catalytic domain of human Bub1 (amino acids 704-1085) (Homo sapiens, UniProt O43683) | 8.10
CC(=O)Nc1cc(-c2[nH]c3c(c2Nc2ccccc2)C(=O)CN(C(=O)N2CCOCC2)C3)ccn1 | catalytic domain of human Bub1 (amino acids 704-1085) (Homo sapiens, UniProt O43683) | 8.00
CS(=O)(=O)N1CC(=O)c2c([nH]c(-c3ccnc(NC(=O)c4cncs4)c3)c2Nc2ccccc2)C1 | catalytic domain of human Bub1 (amino acids 704-1085) (Homo sapiens, UniProt O43683) | 8.40

Note: attention shifts to another entry.
Problem: Quote pIC50 reported for CC(C)C(=O)N1CC(=O)c2c([nH]c(-c3ccncc3)c2Nc2ccccc2)C1 please.
Result: 8.22

---

# measurement_target: catalytic domain of human Bub1 (amino acids 704-1085) (Homo sapiens, UniProt O43683)
# Construct: catalytic domain of human Bub1 (amino acids 704-1085); His6 (N); made in house; host or cells: Hi5 insect cells
# method_summary: Bub1 kinase assay (TR-FRET)
# Format: biochemical
# condition_context: TR-FRET; ATP 10 μM, peptide substrate 1 μM; 60 min at 22° C.; average or median if tested more than once; read-out: Inhibition of Bub1 kinase IC50
pIC50: −log10 of the molar value.
// label = 1 if pIC50 is not less than 7, otherwise -1

Consider the following illustrative entries.
compound | label_value
CC(=O)N1CC(=O)c2c([nH]c(-c3ccncc3OCCN(C)C)c2Nc2ccccc2)C1 | 1
CC(C)OC(=O)N1CC(=O)c2c([nH]c(-c3ccnc(NC(=O)[C@@H]4C[C@@H]4F)c3)c2Nc2ccccc2)C1 | 1
COc1cnccc1-c1[nH]c2c(c1Nc1ccccc1)C(=O)CN(S(=O)(=O)C(C)C)C2 | 1

Problem: Confirm if pIC50 reported for the compound CC(=O)N1CC(=O)c2c([nH]c(-c3ccncc3OCC3CC3)c2Nc2ccccc2)C1 is 7 or above.
Result: 1

Problem: Confirm if pIC50 reported for the compound CC(C)S(=O)(=O)N1CC(=O)c2c([nH]c(-c3ccncc3)c2Nc2ccccc2)C1 is 7 or above.
Result: 1

---

Here the recorded pIC50 is given for each entry.
# measurement_target: catalytic domain of human Bub1 (amino acids 704-1085) (Homo sapiens)
# Construct: catalytic domain of human Bub1 (amino acids 704-1085); His6 (N); made in house; host or cells: Hi5 insect cells
# method_summary: Bub1 kinase assay (TR-FRET)
# Type: biochemical
# condition_context: TR-FRET; ATP 10 μM, peptide substrate 1 μM; 60 min at 22° C.; average or median if tested more than once; read-out: Inhibition of Bub1 kinase IC50
A value of pIC50 is the negative decimal logarithm of a concentration given in moles per litre.

structure_string | pIC50
CC(=O)Nc1cc(-c2[nH]c3c(c2Nc2ccccc2)C(=O)CN(C(=O)OC(C)(C)C)C3)ccn1 | 5.78
CC(C)(C)OC(=O)N1CC(=O)c2c([nH]c(-c3ccnc(NC(=O)[C@H]4C[C@H]4F)c3)c2Nc2ccccc2)C1 | 8.10
COCCOc1cnccc1-c1[nH]c2c(c1Nc1ccccc1)C(=O)CN(S(C)(=O)=O)C2 | 8.30

Note: attention shifts to another entry.
Problem: # return pIC50 of CC(=O)Nc1cc(-c2[nH]c3c(c2Nc2ccccc2)C(=O)CN(C(=O)C2CCN(C)CC2)C3)ccn1 (system: catalytic domain of human Bub1 (amino acids 704-1085) (Homo sapiens))
Result: 6.84

---

# measurement_target: catalytic domain of human Bub1 (amino acids 704-1085) (Homo sapiens, UniProt O43683)
# Construct: catalytic domain of human Bub1 (amino acids 704-1085); His6 (N); made in house; host or cells: Hi5 insect cells
# method_summary: Bub1 kinase assay (TR-FRET)
# Type: biochemical
# condition_context: TR-FRET; ATP 10 μM, peptide substrate 1 μM; 60 min at 22° C.; average or median if tested more than once; read-out: Inhibition of Bub1 kinase IC50
# Procedure: […] In a typical assay 11 different concentrations of each compound (0.1 nM, 0.33 nM, 1.1 nM, 3.8 nM, 13 nM, 44 nM, 0.15 μM, 0.51 μM, 1.7 μM, 5.9 μM and 20 μM) were tested in duplicate within the same microtiter plate. […] Subsequently, the amount of product was evaluated by measurement of the resonance energy transfer from the Eu-chelate-antibody complex recognizing the Phosphoserine residue to the streptavidin-XL665 bound to the biotin moiety of the peptide. […]
Here the recorded IC50 is given for each entry.
Express the result in nM but write the number alone.

structure_string | measurement_target | result_units | test_value
O=C1CN(C(=O)c2cnc[nH]2)Cc2[nH]c(-c3ccncc3)c(Nc3ccccc3)c21 | catalytic domain of human Bub1 (amino acids 704-1085) (Homo sapiens, UniProt O43683) | nM | 10

Problem: Quote IC50 reported for CC(C)(O)CC(=O)N1CC(=O)c2c([nH]c(-c3ccnc(NC(=O)[C@@H]4C[C@@H]4F)c3)c2Nc2ccccc2)C1 please.
Result: 6

Problem: Quote IC50 reported for CC(=O)Nc1cc(-c2[nH]c3c(c2Nc2ccccc2)C(=O)CN(C(=O)c2cncs2)C3)ccn1 please.
Result: 8

Problem: Quote IC50 reported for CC(=O)N1CC(=O)c2c([nH]c(-c3ccnc(NC(=O)c4ccc(F)cc4)c3)c2Nc2ccccc2)C1 please.
Result: 5

---

# measurement_target: catalytic domain of human Bub1 (amino acids 704-1085) (Homo sapiens)
# Construct: catalytic domain of human Bub1 (amino acids 704-1085); His6 (N); made in house; host or cells: Hi5 insect cells
# method_summary: Bub1 kinase assay (TR-FRET)
# Type: biochemical
# condition_context: TR-FRET; ATP 10 μM, peptide substrate 1 μM; 60 min at 22° C.; average or median if tested more than once; read-out: Inhibition of Bub1 kinase IC50
pIC50: −log10 of the molar value.
// label = Yes if pIC50 is not less than 8, otherwise No

Consider the following illustrative entries.
structure_string | label_value
O=C1COCc2[nH]c(-c3ccncc3C(F)(F)F)c(Nc3ccccc3)c21 | No
COc1cc(C(=O)Nc2cc(-c3[nH]c4c(c3Nc3ccccc3)C(=O)CN(C(=O)OC(C)(C)C)C4)ccn2)ccc1F | No
CC(=O)Nc1cc(-c2[nH]c3c(c2Nc2ccccc2)C(=O)CN(C(=O)c2ncco2)C3)ccn1 | No
CN(C)S(=O)(=O)N1CC(=O)c2c([nH]c(-c3ccnc(NC(=O)[C@@H]4C[C@@H]4F)c3)c2Nc2ccccc2)C1 | Yes
CC(=O)Nc1cc(-c2[nH]c3c(c2Nc2ccccc2)C(=O)CN(S(=O)(=O)CCC(F)(F)F)C3)ccn1 | Yes
CCC(=O)N1CC(=O)c2c([nH]c(-c3ccnc(NC(=O)[C@@H]4C[C@@H]4F)c3)c2Nc2ccccc2)C1 | Yes
CC(C)(C)SC(=O)N1CC(=O)c2c([nH]c(-c3ccncc3OCC(F)F)c2Nc2ccccc2)C1 | No
CCNC(=O)N1CC(=O)c2c([nH]c(-c3ccnc(NC(=O)[C@@H]4C[C@@H]4F)c3)c2Nc2ccccc2)C1 | Yes
CC(C)(C)SC(=O)N1CC(=O)c2c([nH]c(-c3ccnc(NC(=O)[C@@H]4C[C@@H]4F)c3)c2Nc2ccccc2)C1 | No

Problem: Confirm if pIC50 reported for the compound CCNC(=O)N1CC(=O)c2c([nH]c(-c3ccnc(C)n3)c2Nc2ccccc2)C1 is 8 or above.
Result: No
